target: β-catenin D145A/E155A double mutant/BCL9 interaction (Homo sapiens (Human), UniProt P35222, D145A/E155A); assay: AlphaScreen competitive inhibition assay, β-catenin D145A/E155A double mutant/BCL9 interaction; settings: read-out: Ki ± SD
Sequence (P35222 138-686 D145A/E155A): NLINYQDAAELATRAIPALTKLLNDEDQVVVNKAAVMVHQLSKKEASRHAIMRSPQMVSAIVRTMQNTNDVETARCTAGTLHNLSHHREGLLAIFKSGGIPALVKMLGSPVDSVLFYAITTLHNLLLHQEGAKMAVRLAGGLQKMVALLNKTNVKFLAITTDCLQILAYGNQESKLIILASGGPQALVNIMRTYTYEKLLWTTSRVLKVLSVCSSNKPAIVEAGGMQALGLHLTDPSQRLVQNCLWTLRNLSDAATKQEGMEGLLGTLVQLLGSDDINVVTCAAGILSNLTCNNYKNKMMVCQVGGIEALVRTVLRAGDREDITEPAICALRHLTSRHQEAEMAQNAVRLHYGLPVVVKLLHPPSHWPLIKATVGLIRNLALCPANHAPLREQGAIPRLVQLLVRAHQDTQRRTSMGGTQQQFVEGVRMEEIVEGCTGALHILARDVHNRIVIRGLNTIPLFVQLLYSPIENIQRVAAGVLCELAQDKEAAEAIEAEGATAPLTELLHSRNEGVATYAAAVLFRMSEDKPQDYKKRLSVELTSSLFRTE
VALUE KIND: Ki (µM)

molecule="Cl.Cl.O=C(c1cc(F)cc(N2CCNCC2)c1)N1CCN(C(=O)c2ccc(O[C@H]3CCNC3)c(C3CCCCC3)c2)CC1 [Compound 10, hydrochloride]" value_kind=Ki observed_value=53

---

Biological target: β-catenin D145A/BCL9 PPI (Homo sapiens (Human), UniProt P35222, D145A)
Experiment: AlphaScreen competitive inhibition assay, β-catenin D145A mutant/BCL9 PPI
Settings: β-catenin D145A/BCL9 PPI, AlphaScreen competitive inhibition; read-out: Ki ± SD
Method: β-Catenin mutants D145A, E155A, D145A/E155A have been made previously.^5 Wild-type β-catenin and its mutants (residues 138-686) were cloned into a pET-28b vector carrying a C-terminal 6×histidine (Novagen), and transformed into Escherichia coli BL21 DE3 (Novagen). […] The purity of β-catenin was greater than 95% as determined by SDS-PAGE gel analysis. […] CD spectra were measured on a J-815 spectropolarimeter (Jasco). […]
VALUE KIND: Ki (µM)

molecule="Cl.Cl.O=C(c1cc(F)cc(N2CCNCC2)c1)N1CCN(C(=O)c2ccc(O[C@H]3CCNC3)c(C3CCCCC3)c2)CC1 [Compound 10, hydrochloride]" observed_value=29
